Reference source for all entries: the supplement of paper PMC10126150

test system: ATP; test: switch fluorescence ratio, 500 uM ATP over buffer (Cy3 cluster intensity, sum of 5 cycles each) (fold (ratio)); higher = stronger signal-on switching upon ATP binding; sequences stand for … in TCGTCGGCAGCGTCAGATGTGTATAAGAGACAGTTTTTTTTTTTTTTTTTTTTTTTTT…TC; conditions: aptamer strand: ATP DNA aptamer (quencher-CACCTGGGGGAGTATTGCGGAGGAAGG + anchor), 100 nM annealed; ATP concentration: 500 uM;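 further: ATP exposure 15 min at 22 °C before imaging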
attribute_measured: switch fluorescence ratio

[[record]]
sequence_data = "TAATGTATGA"
attribute_measured = "switch fluorescence ratio"
numeric_result = 0.972

[[record]]
sequence_data = "ATAAAAATCG"
attribute_measured = "switch fluorescence ratio"
numeric_result = 0.989

[[record]]
sequence_data = "ACTCTACCGT"
attribute_measured = "switch fluorescence ratio"
numeric_result = 1.29

[[record]]
sequence_data = "CTTTGTCTGA"
attribute_measured = "switch fluorescence ratio"
numeric_result = 1.02

[[record]]
sequence_data = "AGCTCAGGGA"
attribute_measured = "switch fluorescence ratio"
numeric_result = 1.04

[[record]]
sequence_data = "GGTAGGGAGC"
attribute_measured = "switch fluorescence ratio"
numeric_result = 0.993

[[record]]
sequence_data = "CAGGAGGAGA"
attribute_measured = "switch fluorescence ratio"
numeric_result = 1.03

[[record]]
sequence_data = "GGGTTGAGAG"
attribute_measured = "switch fluorescence ratio"
numeric_result = 0.985

[[record]]
sequence_data = "AAATTGTTTT"
attribute_measured = "switch fluorescence ratio"
numeric_result = 1.01

[[record]]
sequence_data = "TATTAGGTAT"
attribute_measured = "switch fluorescence ratio"
numeric_result = 0.961


* * *

system: ATP; experiment: switch fluorescence ratio, 500 uM ATP over buffer (Cy3 cluster intensity, sum of 5 cycles each) (fold (ratio)); higher = stronger signal-on switching upon ATP binding; sequences stand for … in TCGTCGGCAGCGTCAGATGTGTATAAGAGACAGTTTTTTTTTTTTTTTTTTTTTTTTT…TC; details: aptamer strand: ATP DNA aptamer (quencher-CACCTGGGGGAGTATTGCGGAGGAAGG + anchor), 100 nM annealed; ATP concentration: 500 uM;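 further: ATP exposure 15 min at 22 °C before imaging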
attribute_measured: switch fluorescence ratio

[[record]]
sequence_data = "CTGTGTGCAG"
attribute_measured = "switch fluorescence ratio"
numeric_result = 1.01

[[record]]
sequence_data = "GGGTTTATTT"
attribute_measured = "switch fluorescence ratio"
numeric_result = 0.982

[[record]]
sequence_data = "CGGGACCGGC"
attribute_measured = "switch fluorescence ratio"
numeric_result = 1.04

[[record]]
sequence_data = "TTTGGATGTT"
attribute_measured = "switch fluorescence ratio"
numeric_result = 1

[[record]]
sequence_data = "CGTAAGCGTA"
attribute_measured = "switch fluorescence ratio"
numeric_result = 1.04

[[record]]
sequence_data = "TTGCGGGTGG"
attribute_measured = "switch fluorescence ratio"
numeric_result = 1.01

[[record]]
sequence_data = "TAGTGGCCTG"
attribute_measured = "switch fluorescence ratio"
numeric_result = 0.955

[[record]]
sequence_data = "AGGGGGGCTT"
attribute_measured = "switch fluorescence ratio"
numeric_result = 1.01

[[record]]
sequence_data = "GTCGAGGGGC"
attribute_measured = "switch fluorescence ratio"
numeric_result = 0.968

[[record]]
sequence_data = "GGAGTTAATT"
attribute_measured = "switch fluorescence ratio"
numeric_result = 1.02

[[record]]
sequence_data = "CGAATTAATT"
attribute_measured = "switch fluorescence ratio"
numeric_result = 0.962

[[record]]
sequence_data = "CGAATGGTCG"
attribute_measured = "switch fluorescence ratio"
numeric_result = 1.04

[[record]]
sequence_data = "GGGTATTTGG"
attribute_measured = "switch fluorescence ratio"
numeric_result = 0.987

[[record]]
sequence_data = "TTTAAGTCAG"
attribute_measured = "switch fluorescence ratio"
numeric_result = 1.02

[[record]]
sequence_data = "TAAAGTGTGC"
attribute_measured = "switch fluorescence ratio"
numeric_result = 0.973

[[record]]
sequence_data = "TTGAAAATCT"
attribute_measured = "switch fluorescence ratio"
numeric_result = 1.02

[[record]]
sequence_data = "GGTATAGGGT"
attribute_measured = "switch fluorescence ratio"
numeric_result = 0.981

[[record]]
sequence_data = "AAGTTTAGTA"
attribute_measured = "switch fluorescence ratio"
numeric_result = 1.01

[[record]]
sequence_data = "AGAAATTATA"
attribute_measured = "switch fluorescence ratio"
numeric_result = 1

[[record]]
sequence_data = "CAAGGACATA"
attribute_measured = "switch fluorescence ratio"
numeric_result = 1.07


* * *

system: ATP; test: switch fluorescence ratio, 500 uM ATP over buffer (Cy3 cluster intensity, sum of 5 cycles each) (fold (ratio)); higher = stronger signal-on switching upon ATP binding; sequences stand for … in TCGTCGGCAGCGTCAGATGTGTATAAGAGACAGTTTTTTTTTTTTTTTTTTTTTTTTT…TC; conditions: aptamer strand: ATP DNA aptamer (quencher-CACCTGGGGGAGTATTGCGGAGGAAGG + anchor), 100 nM annealed; ATP concentration: 500 uM;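 further: ATP exposure 15 min at 22 °C before imaging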
attribute_measured: switch fluorescence ratio

[[record]]
sequence_data = "GGACTGGATG"
numeric_result = 1

[[record]]
sequence_data = "TATTCGGGGG"
numeric_result = 1.04

[[record]]
sequence_data = "GGGTACGTGT"
numeric_result = 0.989

[[record]]
sequence_data = "GTTACTGGAA"
numeric_result = 1.04

[[record]]
sequence_data = "CGATGTCTCT"
numeric_result = 0.973

[[record]]
sequence_data = "ATGCCTGATA"
numeric_result = 0.963

[[record]]
sequence_data = "GCATGGCTGG"
numeric_result = 1.02

[[record]]
sequence_data = "TATAGGATTT"
numeric_result = 1

[[record]]
sequence_data = "CCGGATTAA"
numeric_result = 1.02

[[record]]
sequence_data = "TGGTTACTTC"
numeric_result = 1.04

[[record]]
sequence_data = "TTACGGCAGG"
numeric_result = 1.13

[[record]]
sequence_data = "AAGTGCGGCG"
numeric_result = 1.03

[[record]]
sequence_data = "CAGGGGTTGC"
numeric_result = 1.01

[[record]]
sequence_data = "GATTATGGTT"
numeric_result = 0.989

[[record]]
sequence_data = "AATTTATAAT"
numeric_result = 1.01

[[record]]
sequence_data = "TTAGGCTTT"
numeric_result = 0.937

[[record]]
sequence_data = "TGAATTTCGA"
numeric_result = 0.953

[[record]]
sequence_data = "ACTAGTTTTC"
numeric_result = 0.961

[[record]]
sequence_data = "CTGGTGCGCG"
numeric_result = 0.98

[[record]]
sequence_data = "CGGGGCGAGG"
numeric_result = 1

[[record]]
sequence_data = "GGGGAGATTC"
numeric_result = 0.994

[[record]]
sequence_data = "TACGTAACTC"
numeric_result = 1.28

[[record]]
sequence_data = "AAAGGATAAT"
numeric_result = 1.01

[[record]]
sequence_data = "GATCGGGGTA"
numeric_result = 1.01

[[record]]
sequence_data = "ACGGGGTCT"
numeric_result = 1.02

[[record]]
sequence_data = "TTGTTGTCGG"
numeric_result = 0.956

[[record]]
sequence_data = "GGGGGGAGTG"
numeric_result = 0.975

[[record]]
sequence_data = "AATTGTATCT"
numeric_result = 1.01

[[record]]
sequence_data = "GATGAATTAG"
numeric_result = 1

[[record]]
sequence_data = "ATTCAGTAAA"
numeric_result = 1

[[record]]
sequence_data = "TCGGGAGGGG"
numeric_result = 0.989

[[record]]
sequence_data = "GCGGCCTTGT"
numeric_result = 1.04

[[record]]
sequence_data = "CGGTTATCGC"
numeric_result = 1.03

[[record]]
sequence_data = "ATTCGTTACT"
numeric_result = 1.03

[[record]]
sequence_data = "ACAAAGGGGG"
numeric_result = 0.92

[[record]]
sequence_data = "TTTTTCAATT"
numeric_result = 0.982

[[record]]
sequence_data = "AATTTTTAAG"
numeric_result = 0.997

[[record]]
sequence_data = "GCTCTTAAGG"
numeric_result = 0.982

[[record]]
sequence_data = "TTCAGCCATT"
numeric_result = 1.01

[[record]]
sequence_data = "GTTGGTTAAT"
numeric_result = 0.966

[[record]]
sequence_data = "TTGCATCTTG"
numeric_result = 1.01

[[record]]
sequence_data = "TTAAAGCACT"
numeric_result = 1.19

[[record]]
sequence_data = "GACACGTGTT"
numeric_result = 1.03

[[record]]
sequence_data = "AACAACCATT"
numeric_result = 1.05

[[record]]
sequence_data = "TAAAATTTGT"
numeric_result = 1.01

[[record]]
sequence_data = "GGTCTTAGAA"
numeric_result = 1.03

[[record]]
sequence_data = "CTAAGATAGC"
numeric_result = 1.03

[[record]]
sequence_data = "AATCGTGGGG"
numeric_result = 0.975

[[record]]
sequence_data = "GTTGGGTGGT"
numeric_result = 0.968

[[record]]
sequence_data = "ACTTTTCGGC"
numeric_result = 0.991

[[record]]
sequence_data = "ATTTATGATA"
numeric_result = 0.99

[[record]]
sequence_data = "TGCTTTTTGG"
numeric_result = 1.01

[[record]]
sequence_data = "TGACGTCGTA"
numeric_result = 0.969

[[record]]
sequence_data = "AAATGGGTTC"
numeric_result = 0.987

[[record]]
sequence_data = "GAAGTTGTCG"
numeric_result = 1.02

[[record]]
sequence_data = "TTGTAGTTGG"
numeric_result = 0.986

[[record]]
sequence_data = "GGATCGAAGG"
numeric_result = 0.96

[[record]]
sequence_data = "AACGGGGGTG"
numeric_result = 1.01

[[record]]
sequence_data = "TAGTTATCGT"
numeric_result = 1.01

[[record]]
sequence_data = "GGAGTCATAC"
numeric_result = 1.63

[[record]]
sequence_data = "TGGATGTGGG"
numeric_result = 1.03

[[record]]
sequence_data = "CAGTTGTTGG"
numeric_result = 0.984

[[record]]
sequence_data = "GGTGGGATGC"
numeric_result = 1.02

[[record]]
sequence_data = "CGGCTGGGTA"
numeric_result = 1.01

[[record]]
sequence_data = "TCGCGGGAGA"
numeric_result = 1.05

[[record]]
sequence_data = "GTGGGTGCGG"
numeric_result = 0.979

[[record]]
sequence_data = "TTCGTAGAAA"
numeric_result = 1.05

[[record]]
sequence_data = "ACTATCGGCA"
numeric_result = 1.02

[[record]]
sequence_data = "AGAGGGTTGG"
numeric_result = 0.986

[[record]]
sequence_data = "AATAGGTTGT"
numeric_result = 0.992

[[record]]
sequence_data = "GCGACAAGCT"
numeric_result = 0.997

[[record]]
sequence_data = "GCTGTAGCGC"
numeric_result = 1.06

[[record]]
sequence_data = "GAGTAACGGT"
numeric_result = 1.03

[[record]]
sequence_data = "AACGCTGAGG"
numeric_result = 1.01

[[record]]
sequence_data = "TTTTTTCCTT"
numeric_result = 1.01

[[record]]
sequence_data = "TTTCGGGAGC"
numeric_result = 0.977

[[record]]
sequence_data = "TGGGTTTGAG"
numeric_result = 0.99

[[record]]
sequence_data = "TTTCGTTTGC"
numeric_result = 0.998

[[record]]
sequence_data = "CAGGCAAGCG"
numeric_result = 1.04

[[record]]
sequence_data = "TTAAGAGGGG"
numeric_result = 0.975

[[record]]
sequence_data = "GGCTTTGGCG"
numeric_result = 1.01

[[record]]
sequence_data = "GGGTAGGCGT"
numeric_result = 0.999

[[record]]
sequence_data = "TCCGGTGTG"
numeric_result = 0.97

[[record]]
sequence_data = "ACAGGGTTGT"
numeric_result = 0.979

[[record]]
sequence_data = "GAGGCAGACT"
numeric_result = 1.23

[[record]]
sequence_data = "GGGTAATTAT"
numeric_result = 1.01

